selectivity ratio at 72 h reference
Test: Selectivity index, ratio of CC50 for cytotoxicity against African green monkey Vero cells assessed as reduction in cell viability measured after 72 hrs by MTT assay to EC50 for antiviral activity against Herpes simplex virus 1 infected in African green monkey Vero cells assessed as reduction in plaque formation pretreated with compound for 1 hr followed by viral infection at 0.01 PFU/cells for 1 hr by plaque reduction assay
Format: toxicity, cell-based
Conditions: read-out: Ratio CC50/EC50
quantity measured: selectivity ratio at 72 h

>>> assay_value("CN(C)CCCNC(=O)c1ccc2nc(-c3ccc4nc(CNC(=O)CN5CCN(CC(=O)NCc6nc7ccc(-c8nc9ccc(C(=O)NCCCN(C)C)cc9[nH]8)cc7[nH]6)CC5)[nH]c4c3)[nH]c2c1")
5750
>>> assay_value("CN(C)CCCNC(=O)c1ccc2nc(-c3ccc4nc(CNC(=O)CCN5CCN(CCC(=O)NCc6nc7ccc(-c8nc9ccc(C(=O)NCCCN(C)C)cc9[nH]8)cc7[nH]6)CC5)[nH]c4c3)[nH]c2c1")
703
>>> assay_value("CN(C)CCCNC(=O)c1ccc2nc(-c3ccc4nc(CN)[nH]c4c3)[nH]c2c1")
11
>>> assay_value("Nc1nc2c(ncn2COCCO)c(=O)[nH]1 [ACYCLOVIR]")
86
>>> assay_value("CN(C)CCCNC(=O)c1ccc2nc(-c3ccc4nc(CNC(=O)CCCN5CCN(CCCC(=O)NCc6nc7ccc(-c8nc9ccc(C(=O)NCCCN(C)C)cc9[nH]8)cc7[nH]6)CC5)[nH]c4c3)[nH]c2c1")
95

---

Recorded IC50 for the following compounds
Biological target: Human immunodeficiency virus type 1 integrase (Human immunodeficiency virus 1)
Sequence (Q7ZJM1 whole entry): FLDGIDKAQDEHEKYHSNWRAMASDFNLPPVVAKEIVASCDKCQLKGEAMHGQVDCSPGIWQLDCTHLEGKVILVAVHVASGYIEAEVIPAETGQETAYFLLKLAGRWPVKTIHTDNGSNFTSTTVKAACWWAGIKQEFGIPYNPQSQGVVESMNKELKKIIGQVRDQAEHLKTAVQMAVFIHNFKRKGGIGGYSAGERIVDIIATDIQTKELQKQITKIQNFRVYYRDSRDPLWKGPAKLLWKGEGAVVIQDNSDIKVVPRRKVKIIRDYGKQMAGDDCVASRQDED
Assay: Inhibition of recombinant HIV1 integrase expressed in Escherichia coli Rosetta assessed as reduction in 3' end processing activity using [32P]-labelled U5B/U5A DNA as substrate measured after 2 hrs by polyacrylamide gel electrophoresis method
quantity measured: IC50 (µM)

>>> assay_value("CN1CCN(c2ccc3nc(-c4ccc5nc(CNC(=O)CCCCN6CCN(CCCCC(=O)NCc7nc8ccc(-c9nc%10ccc(N%11CCN(C)CC%11)cc%10[nH]9)cc8[nH]7)CC6)[nH]c5c4)[nH]c3c2)CC1")
3.9
>>> assay_value("CN1CCN(c2ccc3nc(-c4ccc5nc(CNC(=O)CCN6CCN(CCC(=O)NCc7nc8ccc(-c9nc%10ccc(N%11CCN(C)CC%11)cc%10[nH]9)cc8[nH]7)CC6)[nH]c5c4)[nH]c3c2)CC1")
7

---

Target: Human immunodeficiency virus type 1 integrase (Human immunodeficiency virus 1)
Assay: Inhibition of recombinant HIV1 integrase expressed in Escherichia coli Rosetta assessed as reduction in 3' end processing activity using [32P]-labelled U5B/U5A DNA as substrate measured after 2 hrs by polyacrylamide gel electrophoresis method
quantity measured: IC50 (nM)

>>> assay_value("CN(C)CCCNC(=O)c1ccc2nc(-c3ccc4nc(CNC(=O)CN5CCN(CC(=O)NCc6nc7ccc(-c8nc9ccc(C(=O)NCCCN(C)C)cc9[nH]8)cc7[nH]6)CC5)[nH]c4c3)[nH]c2c1")
2100
>>> assay_value("CN(C)CCCNC(=O)c1ccc2nc(-c3ccc4nc(CNC(=O)CCCN5CCN(CCCC(=O)NCc6nc7ccc(-c8nc9ccc(C(=O)NCCCN(C)C)cc9[nH]8)cc7[nH]6)CC5)[nH]c4c3)[nH]c2c1")
1800
>>> assay_value("CN(C)CCCNC(=O)c1ccc2nc(-c3ccc4nc(CNC(=O)CCCCN5CCN(CCCCC(=O)NCc6nc7ccc(-c8nc9ccc(C(=O)NCCCN(C)C)cc9[nH]8)cc7[nH]6)CC5)[nH]c4c3)[nH]c2c1")
1100
>>> assay_value("CN1CCN(c2ccc3nc(-c4ccc5nc(CNC(=O)CCCN6CCN(CCCC(=O)NCc7nc8ccc(-c9nc%10ccc(N%11CCN(C)CC%11)cc%10[nH]9)cc8[nH]7)CC6)[nH]c5c4)[nH]c3c2)CC1")
9900
>>> assay_value("CN(C)CCCNC(=O)c1ccc2nc(-c3ccc4nc(CNC(=O)CCN5CCN(CCC(=O)NCc6nc7ccc(-c8nc9ccc(C(=O)NCCCN(C)C)cc9[nH]8)cc7[nH]6)CC5)[nH]c4c3)[nH]c2c1")
2600

---

System: Aliivibrio fischeri
Experiment: Binding affinity to Aliivibrio fischeri H-NS dependent Prf promoter assessed as luminescence intensity measured after 3 hrs by bioluminescence assay relative to control
quantity measured: Flu intensity

>>> assay_value("CN(C)CCCNC(=O)c1ccc2nc(-c3ccc4nc(CNC(=O)CCCCN5CCN(CCCCC(=O)NCc6nc7ccc(-c8nc9ccc(C(=O)NCCCN(C)C)cc9[nH]8)cc7[nH]6)CC5)[nH]c4c3)[nH]c2c1")
4300
>>> assay_value("CN(C)CCCNC(=O)c1ccc2nc(-c3ccc4nc(CNC(=O)CCCN5CCN(CCCC(=O)NCc6nc7ccc(-c8nc9ccc(C(=O)NCCCN(C)C)cc9[nH]8)cc7[nH]6)CC5)[nH]c4c3)[nH]c2c1")
4400
>>> assay_value("CN(C)CCCNC(=O)c1ccc2nc(-c3ccc4nc(CNC(=O)CN5CCN(CC(=O)NCc6nc7ccc(-c8nc9ccc(C(=O)NCCCN(C)C)cc9[nH]8)cc7[nH]6)CC5)[nH]c4c3)[nH]c2c1")
4100
>>> assay_value("CN(C)CCCNC(=O)c1ccc2nc(-c3ccc4nc(CNC(=O)CCN5CCN(CCC(=O)NCc6nc7ccc(-c8nc9ccc(C(=O)NCCCN(C)C)cc9[nH]8)cc7[nH]6)CC5)[nH]c4c3)[nH]c2c1")
122000

---

Test system: Aliivibrio fischeri
Assay: Binding affinity to Aliivibrio fischeri H-NS dependent PluxC promoter assessed as luminescence intensity measured after 3 hrs by bioluminescence assay relative to control
quantity measured: Flu intensity

>>> assay_value("CN(C)CCCNC(=O)c1ccc2nc(-c3ccc4nc(CNC(=O)CN5CCN(CC(=O)NCc6nc7ccc(-c8nc9ccc(C(=O)NCCCN(C)C)cc9[nH]8)cc7[nH]6)CC5)[nH]c4c3)[nH]c2c1")
38000
>>> assay_value("CN(C)CCCNC(=O)c1ccc2nc(-c3ccc4nc(CNC(=O)CCN5CCN(CCC(=O)NCc6nc7ccc(-c8nc9ccc(C(=O)NCCCN(C)C)cc9[nH]8)cc7[nH]6)CC5)[nH]c4c3)[nH]c2c1")
110000
>>> assay_value("CN(C)CCCNC(=O)c1ccc2nc(-c3ccc4nc(CNC(=O)CCCCN5CCN(CCCCC(=O)NCc6nc7ccc(-c8nc9ccc(C(=O)NCCCN(C)C)cc9[nH]8)cc7[nH]6)CC5)[nH]c4c3)[nH]c2c1")
3500
>>> assay_value("CN(C)CCCNC(=O)c1ccc2nc(-c3ccc4nc(CNC(=O)CCCN5CCN(CCCC(=O)NCc6nc7ccc(-c8nc9ccc(C(=O)NCCCN(C)C)cc9[nH]8)cc7[nH]6)CC5)[nH]c4c3)[nH]c2c1")
17000

---

Test system: Aliivibrio logei
Assay: Binding affinity to Aliivibrio logei H-NS dependent Pr1 promoter assessed as luminescence intensity measured after 3 hrs by bioluminescence assay relative to control
Below, each entry is listed with its recorded Flu intensity.
quantity measured: Flu intensity

>>> assay_value("CN(C)CCCNC(=O)c1ccc2nc(-c3ccc4nc(CNC(=O)CN5CCN(CC(=O)NCc6nc7ccc(-c8nc9ccc(C(=O)NCCCN(C)C)cc9[nH]8)cc7[nH]6)CC5)[nH]c4c3)[nH]c2c1")
1700
>>> assay_value("CN(C)CCCNC(=O)c1ccc2nc(-c3ccc4nc(CNC(=O)CCCCN5CCN(CCCCC(=O)NCc6nc7ccc(-c8nc9ccc(C(=O)NCCCN(C)C)cc9[nH]8)cc7[nH]6)CC5)[nH]c4c3)[nH]c2c1")
1000
>>> assay_value("CN(C)CCCNC(=O)c1ccc2nc(-c3ccc4nc(CNC(=O)CCCN5CCN(CCCC(=O)NCc6nc7ccc(-c8nc9ccc(C(=O)NCCCN(C)C)cc9[nH]8)cc7[nH]6)CC5)[nH]c4c3)[nH]c2c1")
3300
>>> assay_value("CN(C)CCCNC(=O)c1ccc2nc(-c3ccc4nc(CNC(=O)CCN5CCN(CCC(=O)NCc6nc7ccc(-c8nc9ccc(C(=O)NCCCN(C)C)cc9[nH]8)cc7[nH]6)CC5)[nH]c4c3)[nH]c2c1")
210000

---

Test: Selectivity index, ratio of CC50 for cytotoxicity against African green monkey Vero cells assessed as reduction in cell viability measured after 72 hrs by MTT assay to EC50 for antiviral activity against Herpes simplex virus 1 infected in African green monkey vero cells assessed as reduction in plaque formation treated 1 hr post viral infection
Assay type: toxicity, cell-based
Conditions: read-out: Ratio CC50/EC50
quantity measured: selectivity ratio at 72 h

>>> assay_value("CN(C)CCCNC(=O)c1ccc2nc(-c3ccc4nc(CNC(=O)CCCCN5CCN(CCCCC(=O)NCc6nc7ccc(-c8nc9ccc(C(=O)NCCCN(C)C)cc9[nH]8)cc7[nH]6)CC5)[nH]c4c3)[nH]c2c1")
34
>>> assay_value("CN(C)CCCNC(=O)c1ccc2nc(-c3ccc4nc(CNC(=O)CCCN5CCN(CCCC(=O)NCc6nc7ccc(-c8nc9ccc(C(=O)NCCCN(C)C)cc9[nH]8)cc7[nH]6)CC5)[nH]c4c3)[nH]c2c1")
70
>>> assay_value("CN(C)CCCNC(=O)c1ccc2nc(-c3ccc4nc(CN)[nH]c4c3)[nH]c2c1")
35
>>> assay_value("Nc1nc2c(ncn2COCCO)c(=O)[nH]1")
916
